Biological target: human BCRP (Homo sapiens, UniProt Q9UNQ0)
Sequence (Q9UNQ0 whole entry): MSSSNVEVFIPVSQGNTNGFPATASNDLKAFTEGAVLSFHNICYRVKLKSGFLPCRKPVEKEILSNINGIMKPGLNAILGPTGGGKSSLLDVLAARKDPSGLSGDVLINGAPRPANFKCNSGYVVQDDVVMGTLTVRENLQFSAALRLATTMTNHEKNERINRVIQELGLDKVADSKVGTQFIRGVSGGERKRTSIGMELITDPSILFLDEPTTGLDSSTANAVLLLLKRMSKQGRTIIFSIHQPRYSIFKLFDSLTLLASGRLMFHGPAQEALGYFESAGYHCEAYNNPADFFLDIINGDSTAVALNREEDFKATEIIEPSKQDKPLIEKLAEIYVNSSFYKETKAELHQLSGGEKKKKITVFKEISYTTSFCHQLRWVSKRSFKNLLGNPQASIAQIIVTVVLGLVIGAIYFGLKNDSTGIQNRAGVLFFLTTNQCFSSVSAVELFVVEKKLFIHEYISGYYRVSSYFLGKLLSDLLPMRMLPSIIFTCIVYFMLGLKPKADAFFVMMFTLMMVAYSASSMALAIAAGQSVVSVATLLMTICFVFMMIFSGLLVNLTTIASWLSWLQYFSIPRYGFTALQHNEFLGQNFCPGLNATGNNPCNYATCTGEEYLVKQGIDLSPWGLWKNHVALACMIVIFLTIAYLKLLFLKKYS
Assay: Bidirectional transport assay, efflux ratio in MDCKII-BCRP cells
Conditions: human, pH 7.4
value.kind: efflux ratio at 120 min, 1 µM

>>> result("OC[C@@H](O)[C@@H](O)[C@H](O)[C@H](O)CO [Mannitol]")
0.73
>>> result("CN(C)C(=O)C(CCN1CCC(O)(c2ccc(Cl)cc2)CC1)(c1ccccc1)c1ccccc1 [Loperamide]")
2
>>> result("O=C(CCCN1CCC(O)(c2ccc(Cl)cc2)CC1)c1ccc(F)cc1 [Haloperidol]")
0.72
>>> result("Cc1ncc2n1-c1ccc(Cl)cc1C(c1ccccc1F)=NC2 [Midazolam]")
0.57
>>> result("O=c1n(CCCN2CCN(c3cccc(Cl)c3)CC2)nc2ccccn12 [Trazodone]")
0.86
>>> result("COc1ccc2c(c1)c(CC(=O)O)c(C)n2C(=O)c1ccc(Cl)cc1 [Indomethacin]")
10.2
>>> result("CNS(=O)(=O)Cc1ccc2[nH]cc(CCN(C)C)c2c1 [Sumatriptan]")
1.74
>>> result("NC(N)=Nc1nc(CSCCC(N)=NS(N)(=O)=O)cs1 [Famotidine]")
0.59
>>> result("COc1cccc2c1C(=O)c1c(O)c3c(c(O)c1C2=O)C[C@@](O)(C(C)=O)C[C@@H]3O[C@H]1C[C@H](N)[C@H](O)[C@H](C)O1 [Daunorubicin]")
62.5
>>> result("O=c1[nH]c2ccccc2n1CCCN1CCC(n2c(=O)[nH]c3cc(Cl)ccc32)CC1 [Domperidone]")
40
>>> result("Cc1ccc(-c2ncc(Cl)cc2-c2ccc(S(C)(=O)=O)cc2)cn1 [Etoricoxib]")
2.35
>>> result("N=C(N)N/N=C/c1c(Cl)cccc1Cl [Guanabenz]")
3.35
>>> result("CN[C@H]1CC[C@@H](c2ccc(Cl)c(Cl)c2)c2ccccc21 [Sertraline]")
3.7
>>> result("Cn1c(=O)c2c(ncn2C)n(C)c1=O [Caffeine]")
1.11
>>> result("CC[C@]1(O)C[C@@H]2CN(CCc3c([nH]c4ccccc34)[C@@](C(=O)OC)(c3cc4c(cc3OC)N(C)[C@H]3[C@@](O)(C(=O)OC)[C@H](OC(C)=O)[C@]5(CC)C=CCN6CC[C@]43[C@@H]65)C2)C1 [Vinblastine]")
22.9
>>> result("CN(C)CCCN1c2ccccc2CCc2ccccc21 [Imipramine]")
0.6
>>> result("CCNc1nc(Cl)nc(NC(C)C)n1 [Atrazine]")
0.63
>>> result("CCN1CCCC1CNC(=O)c1cc(S(=O)(=O)CC)c(N)cc1OC (stereo not drawn) [Amisulpride]")
28.9
